Biological target: human 5-HT2C receptor (Homo sapiens)
Experiment: calcium mobilization (FLIPR) in CHO cells stably expressing the human 5-HT2C receptor
Conditions: calcium mobilization; read-out: 5-HT2C Function EC50
Counter-ions that a name gives are not always drawn.
value kind: EC50

Form field: EC50 recorded for CNC[C@@H]1CCc2cccc(-c3ccccc3Cl)c2O1 [Compound 19, hydrochloride] with human 5-HT2C receptor (Homo sapiens) (enter value) 50 to 200 nM

Provide value of EC50 for this record tested with human 5-HT2C receptor (Homo sapiens): CNC[C@H]1CCc2cccc(-c3cc(Cl)ccc3Cl)c2O1 [Compound 3, hydrochloride] < 50 nM

GET /values?readout=EC50&system=human 5-HT2C receptor (Homo sapiens)&item= NC[C@H]1CCCc2cccc(-c3c(Cl)cccc3Cl)c2O1 [Compound 67, hydrochloride] 50 to 200 nM

Please state recorded EC50 (tested on human 5-HT2C receptor (Homo sapiens)) of Cc1ccccc1-c1cccc2c1O[C@H](CN)CC2 [Compound 33, hydrochloride] > 200 nM

# value lookup — system human 5-HT2C receptor (Homo sapiens), readout EC50, item NC[C@H]1CCc2cc(F)cc(-c3ccc(Cl)cc3Cl)c2O1 [Compound 47, hydrochloride] 50 to 200 nM

Write down the reported EC50 of CNC[C@@H]1CCc2cccc(-c3cc(Cl)ccc3Cl)c2O1 [Compound 20, hydrochloride] , test system: human 5-HT2C receptor (Homo sapiens). < 50 nM

Record lookup: for human 5-HT2C receptor (Homo sapiens), what EC50 belongs to CNC[C@H]1CCc2cccc(-c3ccccc3C)c2O1 [Compound 8, hydrochloride] ? < 50 nM

Lookup: EC50 / human 5-HT2C receptor (Homo sapiens) / CNC[C@H]1CCc2cccc(-c3ccccc3)c2O1 [Compound 5, hydrochloride] 50 to 200 nM

* * *

Target: human 5-hydroxytryptamine-2C (h5-HT2C) receptor (Homo sapiens)
Construct: expressed in transfected cells; host or cells: CHO (Chinese Hamster Ovary) cells; membrane preparation
Assay: [125I]DOI binding to membranes of CHO cells expressing h5-HT2C receptor
Settings: reference compounds; 95% confidence interval in brackets; [125I]DOI displacement; read-out: Ki
value kind: pKi
On this scale, pKi is minus log10 of a concentration expressed in M (mol/L).

Would you kindly share the measured pKi for CSc1ccc2c(c1)C(N1CCN(C)CC1)Cc1ccccc1S2 (stereo not shown) [Methiothepin, reference compound] ? 8.34

* * *

Target: human 5-hydroxytryptamine-2C (h5-HT2C) receptor (Homo sapiens, UniProt P28335)
Sequence (P28335 33-458): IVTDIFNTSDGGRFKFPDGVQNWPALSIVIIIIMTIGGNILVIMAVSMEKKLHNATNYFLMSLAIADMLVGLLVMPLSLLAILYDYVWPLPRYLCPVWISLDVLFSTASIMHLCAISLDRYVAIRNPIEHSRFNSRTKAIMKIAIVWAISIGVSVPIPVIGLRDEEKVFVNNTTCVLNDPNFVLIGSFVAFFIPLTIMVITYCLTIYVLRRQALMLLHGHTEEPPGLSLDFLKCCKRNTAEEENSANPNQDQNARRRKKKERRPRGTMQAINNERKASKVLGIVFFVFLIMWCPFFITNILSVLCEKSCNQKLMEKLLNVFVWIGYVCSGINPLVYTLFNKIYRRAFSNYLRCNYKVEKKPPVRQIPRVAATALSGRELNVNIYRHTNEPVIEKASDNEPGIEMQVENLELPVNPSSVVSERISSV
value kind: Kd (nM)
Just the number in nM, nothing appended.

Look up Kd for this molecule: COc1cc(CC(C)N)c(OC)cc1I (stereo not shown) [[^125I] DOI, reference compound] 0.4
